# Type: cell-based, human
# setup_conditions: human, Cell viability (%)
Bridge positions count the residues as written; N and C are the ends. Square brackets hold non-standard residues; d marks the D form. Peptide text beside a SMILES is read from it. * marks the point of attachment. Phe(4-guanidino) = N=C(N)Nc1ccc(C[C@H](N)C(=O)O)cc1; X1 = N=C(N)N[C@@H](Cc1ccccc1)C(=O)*
measured_property: viability at 24 h, 25 µM (%)
Numbers only, in %.

[[record]]
compound = "CC[C@H](C)[C@H](NC(=O)[C@H](CCCNC(=N)N)NC(=O)[C@H]1CCC(=O)NCCCC[C@H](NC(=O)[C@H](Cc2ccc(NC(=N)N)cc2)NC(=O)[C@H](Cc2c[nH]c3ccccc23)NC(=O)[C@@H]2CCCN2C(=O)[C@@H](NC(=O)[C@@H](N)Cc2ccccc2)C(C)C)C(=O)N[C@@H](CCCCN)C(=O)N[C@@H](Cc2ccccc2)C(=O)N[C@H](CC(C)C)C(=O)N1)C(=O)N[C@@H](CC(C)C)C(N)=O [Peptide 8, FVPW(p-guanidino)F[KKFle]RIL] (H-FVPW[Phe(4-guanidino)]KKF[dL][dE]RIL-NH2; lactam 6-10)"
measured_property = "viability at 24 h, 25 µM"
u = "%"
meas_value = 124


Short answer for CC[C@H](C)[C@H](NC(=O)[C@H](CCCNC(=N)N)NC(=O)[C@H]1CCC(=O)NCCCC[C@H](NC(=O)[C@H](Cc2ccccc2)NC(=O)[C@H](Cc2c[nH]c3ccccc23)NC(=O)[C@@H]2CCCN2C(=O)[C@@H](NC(=O)[C@H](Cc2ccccc2)NC(=N)N)C(C)C)C(=O)N[C@@H](CCCCN)C(=O)N[C@@H](Cc2ccccc2)C(=O)N[C@H](CC(C)C)C(=O)N1)C(=O)N[C@@H](CC(C)C)C(N)=O [Peptide 3, guanidino-FVPWF[KKFle]RIL] (X1-VPWFKKF[dL][dE]RIL-NH2; lactam 5-9) : viability at 24 h, 25 µM was 86
